# protocol_text: Growth inhibition of human HeLaS3 cells
# Type: functional
# condition_notes: HeLa S3
experimental_readout: GI50 (nM)
Write the number in nM without appending the unit.

Below are worked cases with known answers.
item_smiles	GI50 [nM]
CC(C)n1cnc2c(NCc3ccc(-c4ccsc4)s3)nc(N[C@H]3CC[C@H](N)CC3)nc21	150
Cc1cccc(-c2ccc(CNc3nc(N[C@H]4CC[C@H](N)CC4)nc4c3ncn4C(C)C)s2)c1	200

Reported GI50, compound `CC(C)n1cnc2c(NCc3ccc(-c4ccccn4)nc3)nc(N[C@H]3CC[C@H](N)CC3)nc21` : ____
310

Reported GI50, compound `CC(C)n1cnc2c(NCc3ccc(-n4cccn4)cc3)nc(N[C@H]3CC[C@H](N)CC3)nc21` : ____
170

Reported GI50, compound `CC(C)n1cnc2c(NCc3ccc(-c4cccs4)cc3)nc(N[C@H]3CC[C@H](N)CC3)nc21` : ____
48

Reported GI50, compound `CC(C)n1cnc2c(NCc3csc(-c4ccccc4)c3)nc(N[C@H]3CC[C@H](N)CC3)nc21` : ____
370

Reported GI50, compound `CC(C)n1cnc2c(NCc3coc(-c4ccccc4)c3)nc(N[C@H]3CC[C@H](N)CC3)nc21` : ____
330

Reported GI50, compound `CC(C)n1cnc2c(NCc3ccc(-c4ccccc4F)s3)nc(N[C@H]3CC[C@H](N)CC3)nc21` : ____
300

Reported GI50, compound `CC(C)n1cnc2c(NCc3ccc(-c4ccco4)cc3)nc(N[C@H]3CC[C@H](N)CC3)nc21` : ____
30

====

# measurement_target: Cyclin-dependent kinase 2/cyclin A (Homo sapiens, UniProt P24941)
# protocol_text: Inhibition of recombinant Cdk2/cyclinA
Lab note: compare IC50 with 200 nM, writing condition met if less and condition not met if equal or more.

Sample answers from the record:
item_smiles	measurement_target	answer_label
CC(C)n1cnc2c(NCc3ccc(-c4ccccc4)nc3)nc(N[C@H]3CC[C@H](N)CC3)nc21	Cyclin-dependent kinase 2/cyclin A (Homo sapiens, UniProt P24941)	condition met
CC(C)n1cnc2c(NCc3ccc(-c4cccc(F)c4)s3)nc(N[C@H]3CC[C@H](N)CC3)nc21	Cyclin-dependent kinase 2/cyclin A (Homo sapiens, UniProt P24941)	condition not met
CC(C)n1cnc2c(NCc3ccc(-c4ccc(Cl)s4)cc3)nc(N[C@H]3CC[C@H](N)CC3)nc21	Cyclin-dependent kinase 2/cyclin A (Homo sapiens, UniProt P24941)	condition not met

Consider the compound `CC(C)n1cnc2c(NCc3ccc(-c4ccsc4)cc3)nc(N[C@H]3CC[C@H](N)CC3)nc21` . Is its IC50 strictly less than 200 nM?
condition not met

Consider the compound `CC(C)n1cnc2c(NCc3ccc(-c4cccnc4)cc3)nc(N[C@H]3CC[C@H](N)CC3)nc21` . Is its IC50 strictly less than 200 nM?
condition not met

Consider the compound `CC(C)n1cnc2c(NCc3csc(-c4ccccc4)c3)nc(N[C@H]3CC[C@H](N)CC3)nc21` . Is its IC50 strictly less than 200 nM?
condition not met

Consider the compound `CC(C)n1cnc2c(NCc3ccc(-c4ccco4)cc3)nc(N[C@H]3CC[C@H](N)CC3)nc21` . Is its IC50 strictly less than 200 nM?
condition met

Consider the compound `CC(C)n1cnc2c(NCc3ccc(-c4cccs4)cc3)nc(N[C@H]3CC[C@H](N)CC3)nc21` . Is its IC50 strictly less than 200 nM?
condition met

Consider the compound `Cc1csc(-c2ccc(CNc3nc(N[C@H]4CC[C@H](N)CC4)nc4c3ncn4C(C)C)cc2)c1` . Is its IC50 strictly less than 200 nM?
condition not met

Consider the compound `CC(C)n1cnc2c(NCc3ccc(-c4ccccc4)cc3)nc(N[C@H]3CC[C@H](N)CC3)nc21` . Is its IC50 strictly less than 200 nM?
condition not met

Consider the compound `CC(C)n1cnc2c(NCc3ccc(-c4cccc(F)c4)nc3)nc(N[C@H]3CC[C@H](N)CC3)nc21` . Is its IC50 strictly less than 200 nM?
condition met

Consider the compound `CC(C)n1cnc2c(NCc3ccc(-c4cccs4)s3)nc(N[C@H]3CC[C@H](N)CC3)nc21` . Is its IC50 strictly less than 200 nM?
condition met

Consider the compound `CC(C)n1cnc2c(NCc3ccc(-c4ccccn4)nc3)nc(N[C@H]3CC[C@H](N)CC3)nc21` . Is its IC50 strictly less than 200 nM?
condition met

Consider the compound `CC(C)n1cnc2c(NCc3cnc(-c4ccccc4)s3)nc(N[C@H]3CC[C@H](N)CC3)nc21` . Is its IC50 strictly less than 200 nM?
condition met

Consider the compound `COc1cccc(-c2ccc(CNc3nc(N[C@H]4CC[C@H](N)CC4)nc4c3ncn4C(C)C)s2)c1` . Is its IC50 strictly less than 200 nM?
condition not met

Consider the compound `CC(C)n1cnc2c(NCc3csc(-c4ccccc4)n3)nc(N[C@H]3CC[C@H](N)CC3)nc21` . Is its IC50 strictly less than 200 nM?
condition not met
